Molecular target: Kappa-type opioid receptor (Homo sapiens, UniProt P41145)
Sequence (P41145 whole entry): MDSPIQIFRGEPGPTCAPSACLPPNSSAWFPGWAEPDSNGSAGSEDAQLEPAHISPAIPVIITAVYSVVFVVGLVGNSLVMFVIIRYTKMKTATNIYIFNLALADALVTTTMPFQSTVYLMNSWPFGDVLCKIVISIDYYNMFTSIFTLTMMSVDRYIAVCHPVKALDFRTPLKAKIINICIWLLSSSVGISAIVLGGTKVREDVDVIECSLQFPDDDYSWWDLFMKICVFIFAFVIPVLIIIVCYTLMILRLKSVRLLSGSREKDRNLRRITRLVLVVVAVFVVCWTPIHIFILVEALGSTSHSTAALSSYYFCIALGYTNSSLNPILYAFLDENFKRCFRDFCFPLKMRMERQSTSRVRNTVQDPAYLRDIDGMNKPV
Test: Agonist activity at human kappa-type opioid receptor expressed in CHO-K1 cells assessed as forskolin-induced cAMP accumulation up to 10 uM after 30 mins in presence of forskolin by luminescence-based HitHunter cAMP assay
Assay type: functional, cell-based
For each of the compounds below, state its Emax.
Enter your answer as a number in %; do not include the unit.

Which Emax is reported for this compound? `COC(=O)[C@H]1[C@](C)([C@@H](CC(OC)OC)C(=O)OC)CC[C@H]2C(=O)O[C@H](c3ccoc3)C[C@]12C`
100

Which Emax is reported for this compound? `COC(=O)[C@H]1[C@](C)([C@@H](CC=O)C(=O)OC)CC[C@H]2C(=O)O[C@H](c3ccoc3)C[C@]12C`
100

Which Emax is reported for this compound? `COC(=O)[C@H]1[C@](C)([C@@H](CC(=O)O)C(=O)OC)CC[C@H]2C(=O)O[C@H](c3ccoc3)C[C@]12C`
0

Which Emax is reported for this compound? `COC(=O)[C@H]1[C@](C)([C@@H](CCOC(C)=O)C(=O)OC)CC[C@H]2C(=O)O[C@H](c3ccoc3)C[C@]12C`
100

Which Emax is reported for this compound? `COC(=O)[C@@H]1C[C@]2(CCC(=O)O2)C(=O)[C@H]2[C@@]1(C)CC[C@H]1C(=O)O[C@H](c3ccoc3)C[C@]21C`
100

Which Emax is reported for this compound? `COC(=O)[C@@H]1C[C@H](O)C(=O)[C@H]2[C@@]1(C)CC[C@H]1C(=O)O[C@H](c3ccoc3)C[C@]21C`
100

Which Emax is reported for this compound? `COC(=O)[C@@H]1CC(=O)C(O)=C2[C@@]1(C)CC[C@H]1C(=O)O[C@H](c3ccoc3)C[C@]21C`
0

Which Emax is reported for this compound? `COC(=O)[C@@H]1CCC(=O)[C@H]2[C@@]1(C)CC[C@H]1C(=O)O[C@H](c3ccoc3)C[C@]21C`
0

Which Emax is reported for this compound? `COC(=O)[C@H]1[C@](C)([C@@H](CCO)C(=O)OC)CC[C@H]2C(=O)O[C@H](c3ccoc3)C[C@]12C`
0

====

Target: Mu-type opioid receptor (Homo sapiens)
Experiment: Agonist activity at human mu-type opioid receptor expressed in CHO-K1 cells assessed as forskolin-induced cAMP accumulation up to 10 uM after 30 mins in presence of forskolin by luminescence-based HitHunter cAMP assay
Assay type: functional, cell-based
Measure name: Emax (%)
Enter your answer as a number in %; do not include the unit.

Which Emax is reported for this molecule? `COC(=O)[C@H]1[C@](C)([C@@H](CC=O)C(=O)OC)CC[C@H]2C(=O)O[C@H](c3ccoc3)C[C@]12C`
0

Which Emax is reported for this molecule? `COC(=O)[C@H]1[C@](C)([C@@H](CC(OC)OC)C(=O)OC)CC[C@H]2C(=O)O[C@H](c3ccoc3)C[C@]12C`
0

Which Emax is reported for this molecule? `COC(=O)[C@@H]1C[C@]2(CCC(=O)O2)C(=O)[C@H]2[C@@]1(C)CC[C@H]1C(=O)O[C@H](c3ccoc3)C[C@]21C`
0

====

Target: Kappa-type opioid receptor (Homo sapiens)
Assay: Agonist activity at human kappa-type opioid receptor expressed in CHO-K1 cells assessed as forskolin-induced cAMP accumulation after 30 mins in presence of forskolin by luminescence-based HitHunter cAMP assay
For each of the molecules below, state its EC50.
Enter your answer as a number in nM; do not include the unit.

Which EC50 is reported for this molecule? `COC(=O)[C@@H]1C[C@]2(CCC(=O)O2)C(=O)[C@H]2[C@@]1(C)CC[C@H]1C(=O)O[C@H](c3ccoc3)C[C@]21C`
0.6

Which EC50 is reported for this molecule? `COC(=O)[C@H]1[C@](C)([C@@H](CC=O)C(=O)OC)CC[C@H]2C(=O)O[C@H](c3ccoc3)C[C@]12C`
30

====

Biological target: Mu-type opioid receptor (Homo sapiens) (UniProt P35372)
Sequence (P35372 whole entry): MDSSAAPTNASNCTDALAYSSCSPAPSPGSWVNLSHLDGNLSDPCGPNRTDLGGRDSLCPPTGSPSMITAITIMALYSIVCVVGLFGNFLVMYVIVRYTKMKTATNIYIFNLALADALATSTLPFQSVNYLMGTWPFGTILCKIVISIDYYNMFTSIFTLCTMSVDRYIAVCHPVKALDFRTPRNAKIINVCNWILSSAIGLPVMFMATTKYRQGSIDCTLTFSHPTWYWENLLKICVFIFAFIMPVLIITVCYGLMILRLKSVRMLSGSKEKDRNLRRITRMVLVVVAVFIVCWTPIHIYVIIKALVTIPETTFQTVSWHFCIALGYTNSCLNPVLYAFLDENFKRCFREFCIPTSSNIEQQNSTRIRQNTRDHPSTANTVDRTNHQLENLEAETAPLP
Test: Agonist activity at human mu-type opioid receptor expressed in CHO-K1 cells assessed as forskolin-induced cAMP accumulation up to 10 uM after 30 mins in presence of forskolin by luminescence-based HitHunter cAMP assay
Type: functional, cell-based
Measure name: Emax (%)
Enter your answer as a number in %; do not include the unit.

Which Emax is reported for this compound? `COC(=O)[C@H]1[C@](C)([C@@H](CCOC(C)=O)C(=O)OC)CC[C@H]2C(=O)O[C@H](c3ccoc3)C[C@]12C`
0

Which Emax is reported for this compound? `COC(=O)[C@@H]1C[C@H](O)C(=O)[C@H]2[C@@]1(C)CC[C@H]1C(=O)O[C@H](c3ccoc3)C[C@]21C`
0

Which Emax is reported for this compound? `COC(=O)[C@@H]1C[C@H](OC(C)=O)C(=O)[C@H]2[C@@]1(C)CC[C@H]1C(=O)O[C@H](c3ccoc3)C[C@]21C`
0
